# test_system: T1, PDL1-Fc fusion protein (human)
# T1 construct: expressed in CHO or HEK293 cells; also called Human PDL1-Fc; recombinant human PDL1-Fc
# T1 sequence (chain, as listed by the source limits assumed): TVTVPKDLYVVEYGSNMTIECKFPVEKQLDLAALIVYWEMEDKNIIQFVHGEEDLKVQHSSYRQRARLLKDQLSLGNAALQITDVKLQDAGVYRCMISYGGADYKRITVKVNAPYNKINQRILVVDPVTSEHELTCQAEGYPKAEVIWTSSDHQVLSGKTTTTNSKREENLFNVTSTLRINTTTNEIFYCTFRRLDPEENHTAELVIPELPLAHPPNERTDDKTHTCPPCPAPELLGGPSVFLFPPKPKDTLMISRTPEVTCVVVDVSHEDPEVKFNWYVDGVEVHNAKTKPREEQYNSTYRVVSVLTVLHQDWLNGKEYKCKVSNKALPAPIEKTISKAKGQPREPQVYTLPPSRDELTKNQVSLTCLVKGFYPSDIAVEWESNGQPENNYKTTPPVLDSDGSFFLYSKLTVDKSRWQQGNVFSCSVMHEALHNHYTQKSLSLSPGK
# procedure_summary: ELISA, PDL1-Fc coated, 100 ng dAb per well, anti-His detection
assay_metric: OD (against PDL1)

1) PDL1-38 dAb (VHH, camel heavy chain single domain antibody expressed in E. coli, purified on nickel; also called antibody No. 38; not shown: His tag from expression vector PET32b) VHH: QVQLQESGGGSVQAGGSLRLSCAVSGFISSRRCMGWFRQAPGKERVGVANITGTGNTYLADSVKGRFTISQNNAKSTVYLQMNSLKPEDTAMYYCAADSFPTCTVVASSGAFQYWGQGTQVTVSS = 1.98 OD (405 nm)
2) PDL1-87 dAb (VHH, camel heavy chain single domain antibody expressed in E. coli, purified on nickel; also called antibody No. 87; not shown: His tag from expression vector PET32b) VHH: QVQLQESGGGSVQAGGSLKLSCAASGYIFSSCGMGWYRQAPGKERELVSTISSDGTTSYADSVKGRFTISQDNAKNTLYLQMNSLKTEDTAVYYCVADCPPIPEFTSCSGGYCLSGDYWGQGTQVTVSS = 2.24 OD (405 nm)
3) PDL1-69 dAb (VHH, camel heavy chain single domain antibody expressed in E. coli, purified on nickel; also called antibody No. 69; not shown: His tag from expression vector PET32b) VHH: QVQLQESGGGSVQAGGSLRLSCAVQRNISSSYCMAWFRQAPGKQRERVDKILTTPGNTYLADSVKGRFTISQNNAKSTVYLQMNSLKPEDTAMYYCAADSFQKPTCTVVASWPAFQYWGQGTQVTVSS = 1.17 OD (405 nm)
4) PDL1-27 dAb (VHH, camel heavy chain single domain antibody expressed in E. coli, purified on nickel; also called antibody No. 27; not shown: His tag from expression vector PET32b) VHH: QVQLQESGGGSVQAGGSLRLSCAASGNISSRRCMAWFRQAPGKERERVANILTTTGNTYLADSVKGRFTISQNNAKSTVYLQMNSLKPEDTAMYYCAADSFHDPTCTVVASSGAFQYWGQGTQVTVSS = 2.62 OD (405 nm)
5) PDL1-10 dAb (VHH, camel heavy chain single domain antibody expressed in E. coli, purified on nickel; also called antibody No. 10; not shown: His tag from expression vector PET32b) VHH: QVQLQESGGGSVQAGGSLRLSCAASGNIVSSYCMGWFRQAPGKERVGVAAIDSDGTTKYADSMKGRFTISKDNAKNTLDLQMNSLKPEDTAMYYCVARLNCPGPVDWVPMFPYRGQGTQVTVSS = 0.854 OD (405 nm)

The measurements presented in this section are drawn from patent US20180327494A1.
